- System: secretion of acidic gastric juice in dogs provided with a Heidenhain pouch and whose gastric secretion is stimulated with histamine
- method: Inhibition of histamine-stimulated gastric acid secretion in Heidenhain pouch dogs, intravenous injection
- Format: in vivo, dog
- measurement.parameters: dog, histamine-stimulated gastric secretion
property.measured: biological activity (inhibition of the secretion of acidic gastric juice), in words

[
  {
    "substance": "Example 2: 46-residue single-chain polypeptide with three internal disulphide bonds, from the 47-residue polypeptide by carboxypeptidase A cleavage of C-terminal leucine (NSDSECPLSHDGYCLHDGVCMYIEALDKYACNCVVGYIGERCQYRD; Epidermal growth factor; UniProt P01133 971-1016, looked up, fragment)",
    "recorded.result": "biologically active"
  },
  {
    "substance": "polypeptide having 47 amino-acid residues: 47-residue single-chain polypeptide with three disulphide bonds obtained by incubating β-urogastrone with AM protease (NSDSECPLSHDGYCLHDGVCMYIEALDKYACNCVVGYIGERCQYRDL; Epidermal growth factor; UniProt P01133 971-1017, looked up, fragment)",
    "recorded.result": "biologically active"
  }
]
